Listed next: entries and their corresponding remaining at 1 h.
Assay: Stability in human plasma measured after 60 mins LC-MS/MS analysis
Format: ADME, cell-free
Settings: read-out: Stability
Write the number in % without appending the unit.

CO[C@@H]1O[C@H](Cn2c(=O)n3c4c(cccc42)C(C)(C)CC3)[C@@H](O)[C@H]1O : 98
CC1(C)CCn2c(=O)c(=O)n(Cc3nn[nH]n3)c3cccc1c32 : 99.9
CC1(C)CCn2c(=O)c(=O)n(CCCO)c3cccc1c32 : 82.4
Cc1cc2c3c(c1C)C(C)(C)CCn3c(=O)c(=O)n2C[C@H](O)[C@H](O)[C@H](O)CO : 100

Which remaining at 1 h value is on record for "CC1(C)CCn2c(=O)n(C[C@H](O)[C@H](O)[C@H](O)CO)c3cccc1c32" ?
99.9

Where do the numbers come from? From ChEMBL document CHEMBL5154865.
